# Tested on: LOX IMVI melanoma
# protocol-description: NCI tumour cell line growth inhibition, 48 h; in the data active = GI50 below about 0.43 µM; inactive = the rest
Labels: true (1) = active, false (0) = inactive

| molecule | group-label |
| --- | --- |
| Nc1c(C(=O)Nc2cccc([N+](=O)[O-])c2)sc2nc3c(cc12)C(O)CCC3 (centres undefined) | false (0) |
| COc1ccc2nc3cc([N+](=O)[O-])ccc3c(NCCCCCN(C)C)c2c1 | false (0) |
| CCCC[C@H](NC(=O)[C@H]1CCCN1C)C(=O)N(C)[C@H](C[C@@H](OC(C)=O)c1nc(C(=O)N[C@@H](Cc2ccccc2)C[C@H](C)C(=O)OCC)cs1)C(C)C | true (1) |
| Oc1ccc(-c2nnc3sc(-c4ccc(F)cc4)nn23)cc1 | false (0) |
| Cc1c(C(=O)/C=C/c2csc3ccccc23)[n+](=O)c2ccccc2n1[O-] | false (0) |
| CN1CCN(CCc2cccc(C(=O)c3cnn(-c4ccc(F)cc4)c3N)c2)CC1 | false (0) |
| COc1c(CCC[P+](c2ccccc2)(c2ccccc2)c2ccccc2)cc2c(c1OC)OCO2 | false (0) |
| CCN(Cc1ccc(F)c(F)c1)c1ccc(CO)c(Cl)c1 | false (0) |
| O=CNc1c(Cl)cc2c(c1Cl)Cc1cc([N+](=O)[O-])ccc1-2 | false (0) |
| CC1SC(c2c(Cl)cccc2Cl)N(NC(=O)c2[nH]c3ccc(F)cc3c2-c2ccccc2)C1=O (centres undefined) | false (0) |
| Cc1ccc(/C=C2\CN(C(=O)OC(C)(C)C)C/C(=C\c3ccc(C)cc3)C2=O)cc1 | true (1) |
| CC(C)(C)C#CC1=C(Br)C(=O)OC1 | false (0) |
| CCN(CC)c1ccc(C(=C2C=CC(=[N+](CC)Cc3cccc(S(=O)(=O)O)c3)C=C2)c2ccc(N(CC)Cc3cccc(S(=O)(=O)O)c3)cc2)cc1 | false (0) |
| CNC(=O)n1ccc2cc(Oc3ccnc(NC(=O)c4ccc(C5CCN(CCO)CC5)cc4)c3)c(OCCOC)cc21 | false (0) |
| N#Cc1cnc2cc(OC[C@H](O)CO)c(NC(=O)CC3CSSC3)cc2c1Nc1ccc(OCc2cccc(F)c2)c(Cl)c1 | false (0) |
| CC/C=C\C=C/C(=O)N/C=C/CC1Cc2cccc(O)c2C(=O)O1 (centres undefined) | false (0) |
| CCCCCCCCCC[C@H](O)[C@H]1CC[C@H]([C@H]2CC[C@H]([C@H](O)CC[C@H](O)CCCCCCC[C@@H](O)CC3=C[C@H](C)OC3=O)O2)O1 | false (0) |
| Nc1nc(Cl)cc(OCC2(O)CC(COC(=O)c3ccccc3)C2)n1 (centres undefined) | false (0) |
| CCN1C(=O)N(CC)C2C1NN=c1s/c(=C\c3cccnc3)c(=O)n12 (centres undefined) | false (0) |

###

# Tested on: HCT-15 colon
# protocol-description: NCI tumour cell line growth inhibition, 48 h
experimental-readout: GI50

| compound | experimental-readout | reported-result |
| --- | --- | --- |
| Nc1ccn(Cc2ccc(C34CC5CC(CC(C5)C3)C4)c(O)c2)c(=O)n1 | GI50 | > 100 µM |
| CC1SC(c2c(Cl)cccc2Cl)N(NC(=O)c2[nH]c3ccc(F)cc3c2-c2ccccc2)C1=O (stereo not given) | GI50 | 3.73 µM |
| CN1CCN(CCc2cccc(C(=O)c3cnn(-c4ccc(F)cc4)c3N)c2)CC1 | GI50 | > 25 µM |
| COc1ccc(C(=O)/C=C/c2ccc(/C=C/c3cc(OC)c(OC)c(OC)c3)cc2)cc1 | GI50 | 2.42 µM |
| CNC(=O)c1cncc(/C=C/c2ccccc2C)c1 | GI50 | > 25 µM |
